Values were extracted from paper PMC5540273.

Tested on: PIK4CB;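 further: KINOMEscan kinase panel screen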
Construct: gene PI4KB
condition.details: concentration: 1 μM, replicates: in singlicate; n = 1
Each entry below lists one item and its recorded %Inh value.
Answer format: numeric, % implied, no suffix.

In [3]: df
Out[3]:
                                        mol  units_of_measure  val
0  CC(C)(C)c1ccc(C(=O)Nc2cn3cc(-c4cccnc4)ccc3n2)cc1                 %   16
1  C[C@@H]1CCCCN1c1cc(-c2ccc3c(N)n[nH]c3c2)nc(N)n1                 %    0

So what %Inh did `Nc1ncnc2[nH]c(-c3ccccc3)nc12` get with PIK4CB? 37

Try `Nc1nc(-c2nccs2)c(-c2ccnc3ccccc23)s1` next. 0

Param item: `Cn1ccc2ncnc(Oc3cccc(C(=O)Nc4ccccc4)c3)c21` 2

And for `Fc1cccc(COc2nnc(-c3ccc4c(c3)CCO4)o2)c1` ? 0
